- assay target: human recombinant TF/VIIa complex (lipidated) (Homo sapiens)
- Construct: Truncated recombinant human tissue factor (e.g. composed of 243 amino acids) is expressed in E. coli; host or cells: E. coli (TF)
- Sequence (P13726 33-275 limits assumed): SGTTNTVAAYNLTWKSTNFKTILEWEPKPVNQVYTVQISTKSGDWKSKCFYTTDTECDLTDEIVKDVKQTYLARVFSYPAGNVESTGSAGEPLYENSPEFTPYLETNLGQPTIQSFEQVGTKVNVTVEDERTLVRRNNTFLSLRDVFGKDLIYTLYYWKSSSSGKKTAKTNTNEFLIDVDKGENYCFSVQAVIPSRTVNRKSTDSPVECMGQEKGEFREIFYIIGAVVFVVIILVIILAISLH
- Sequence (P08709 61-212 partner limits assumed): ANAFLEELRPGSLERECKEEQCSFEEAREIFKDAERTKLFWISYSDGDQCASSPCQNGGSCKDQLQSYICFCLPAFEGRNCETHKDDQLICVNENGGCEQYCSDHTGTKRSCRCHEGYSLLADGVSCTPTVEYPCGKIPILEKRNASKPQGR
- Sequence (P08709 213-466 partner limits assumed): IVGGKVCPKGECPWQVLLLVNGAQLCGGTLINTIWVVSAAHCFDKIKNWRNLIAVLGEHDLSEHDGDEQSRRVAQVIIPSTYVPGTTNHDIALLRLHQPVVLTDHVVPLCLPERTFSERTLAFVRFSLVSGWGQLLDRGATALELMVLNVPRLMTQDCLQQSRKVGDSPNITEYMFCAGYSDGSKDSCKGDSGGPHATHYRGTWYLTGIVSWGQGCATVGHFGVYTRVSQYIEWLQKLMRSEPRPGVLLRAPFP
- assay details: TF/VIIa-dependent FX activation assay
- Assay type: biochemical
- experimental setup: TF/VIIa, FX and compound added simultaneously; FX 30 nM
recorded metric: IC50 (µM)
One number for each entry, in µM.

Entry under test: O=P(O)(O)C(CNc1cccc(O)c1)P(=O)(O)O . Its IC50 was 33.2

----------
- assay target: human recombinant TF/VIIa complex (lipidated) (Homo sapiens)
- Construct: Truncated recombinant human tissue factor (e.g. composed of 243 amino acids) is expressed in E. coli; host or cells: E. coli (TF)
- assay details: TF/VIIa-dependent FX activation assay
- Assay type: biochemical
- experimental setup: compound preincubated with TF/VIIa 15 minutes at 37° C. prior to FX; FX 30 nM; read-out: IC50, TF/VIIa-dependent FX activation
recorded metric: IC50 (µM)
Numbers only, in µM.

Entry under test: O=P(O)(O)C(CNc1cccc(O)c1)P(=O)(O)O [Compound 1] . Its IC50 was 12.5
